I'd be grateful if you could share measured drug sensitivity score for these entries.
# Test system: CAF#5 (primary prostate cancer-associated fibroblasts of myCAF-like type)
# test: drug sensitivity score (DSS2, normalised partial AUC of dose-response, 72 h CellTiter-Glo viability) (DSS (dimensionless)); higher = more sensitive (stronger growth inhibition / cytotoxicity); extreme values may be limits of the assay
Lab note: record just the number, no unit beside it.

*Q* Suppose we examine the molecule COc1ccc(C[C@H](NC(=O)[C@H](C)NC(=O)CN2CCOCC2)C(=O)N[C@@H](Cc2ccccc2)C(=O)C2(C)CO2)cc1 (stereo in doubt) [ONX-0914] (tested concentration range 1-10000 nM) ; what drug sensitivity score value has been reported?
*A* 18.3

*Q* Which drug sensitivity score value belongs to NC(=O)N1CCC(CC(=O)N2CCC([C@H]3c4ncc(Br)cc4CCc4cc(Cl)cc(Br)c43)CC2)CC1 [Lonafarnib] (tested concentration range 5-50000 nM) ?
*A* 7.6

*Q* Fill in the blank: the reported drug sensitivity score of Cn1cnc2c(F)c(Nc3ccc(Br)cc3Cl)c(C(=O)NOCCO)cc21 [Selumetinib] (tested concentration range 1-10000 nM) is ____.
*A* 1.6

*Q* Fill in: drug sensitivity score of Cc1c2oc3c(C)ccc(C(=O)N[C@@H]4C(=O)N[C@H](C(C)C)C(=O)N5CCC[C@H]5C(=O)N(C)CC(=O)N(C)[C@@H](C(C)C)C(=O)O[C@@H]4C)c3nc-2c(C(=O)N[C@@H]2C(=O)N[C@H](C(C)C)C(=O)N3CCC[C@H]3C(=O)N(C)CC(=O)N(C)[C@@H](C(C)C)C(=O)O[C@@H]2C)c(N)c1=O [Dactinomycin] (tested concentration range 0.1-1000 nM) is ___
*A* 21.1
